Data provenance: the METLIN SMRT retention time set (Domingo-Almenara et al. 2019)

Assay: gradient 5% acetonitrile 3 min, to 50% in 2 min, to 85% in 15 min, held 3 min, 100 µL/min
Details: column: Zorbax Extend-C18 2.1 x 50 mm; eluents: water / acetonitrile, 0.1% formic acid
Reported endpoint: RP-LC retention time (s)

1 = CCOc1ccccc1NC(=O)Cn1nc2n(c1=O)CCCC2
2 = O=C(NCc1ccccc1F)c1cc(N2CCCC2)n2nccc2n1
Input: Higher RP-LC retention time: 1 or 2 ? Indicate your choice by writing its label.
Output: 2

A = O=S(=O)(c1ccccc1Cl)N1CCN(c2ccc3nnc(-c4ccco4)n3n2)CC1
B = CCC(C)NS(=O)(=O)c1ccccc1-c1nc(-c2ccc(C)cc2)no1 (stereo not given)
Input: Higher RP-LC retention time: A or B ? Indicate your choice by writing its label.
Output: B

* * *

Assay: gradient 5% acetonitrile 3 min, to 50% in 2 min, to 85% in 15 min, held 3 min, 100 µL/min
Conditions: column: Zorbax Extend-C18 2.1 x 50 mm; eluents: water / acetonitrile, 0.1% formic acid
Reported endpoint: RP-LC retention time (s)

Compound	RP-LC retention time / s
CC1(C(=O)NCc2ccccc2)CN(S(C)(=O)=O)CC(=O)N1Cc1ccccc1F (centres undefined)	818
CCN1C(=O)COc2ccc(-c3nc(NC(=O)C(C)C)sc3C)cc21	909
COc1ccc(Cl)cc1NC(=O)NCC1(CO)CC1	684
CN1c2ccc(F)cc2C(=O)NC12CCN(C(=O)c1ccc(F)c(Cl)c1)CC2	823
CCn1cnc2ccc(-c3noc(-c4ccoc4)n3)cc21	683
CCS(=O)(=O)N1CC(=O)N(c2ccccc2C)C(C)(C(=O)NC2CCCCCCC2)C1 (centres undefined)	951

1 = O=C(NCCCc1ccccc1)c1nnc(-c2ccc(S(=O)(=O)N3CCOCC3)cc2)o1
2 = Cc1[nH]c(C(=O)N2CCC(CC(=O)NCCN3CCCCC3)CC2)c(C)c1C
Input: Higher RP-LC retention time: 1 or 2 ? Indicate your choice by writing its label.
Output: 1

P = Cc1cccc(N2CCN(S(=O)(=O)c3cc(-c4nnc(C5CC5)o4)co3)CC2)c1
Q = CCCNC(=O)C1CCCN(c2ccc(SCC(=O)NCc3ccc(C)c(C)c3)nn2)C1 (centres undefined)
Input: Given P and given Q , which shows the smaller recorded RP-LC retention time? Indicate your choice by writing its label.
Output: Q
(Q: 698 s, P: 1020 s)

A = CN(C)S(=O)(=O)c1ccc2c(c1)N(CC(=O)NCc1cccc(Cl)c1)C(=O)C1CCCCN21 (centres undefined)
B = O=C(Cc1csc(Nc2ncccn2)n1)NCC(F)(F)F
Input: Given A and given B , which shows the smaller recorded RP-LC retention time? Indicate your choice by writing its label.
Output: B

* * *

Experiment: gradient 5% acetonitrile 3 min, to 50% in 2 min, to 85% in 15 min, held 3 min, 100 µL/min
Details: column: Zorbax Extend-C18 2.1 x 50 mm; eluents: water / acetonitrile, 0.1% formic acid
Reported endpoint: RP-LC retention time (s)

Look over these answered cases.
Compound	Quantitative result
CCOc1ccc(CNC(=O)C2CCN(S(=O)(=O)c3cn(C)cn3)CC2)cc1	692
CC1CCCN(c2ncc(C(=O)NCc3ccccc3)c(N)n2)C1 (stereo not given)	597
CN(C)c1cccc(-c2nc(-c3ccc(CNC(=O)C4CC4)s3)no2)c1	680
O=C(CCn1c(N2CCCCC2)nc2ccccc2c1=O)N1CCN(c2ccccn2)CC1	630
COc1nc2ccccc2nc1N1CCCC(C(=O)N2CCC(C)CC2)C1 (stereo not given)	1110

A = O=c1ccn(-c2ccccc2)nc1-c1nc(-c2ccncc2)no1
B = Cc1nn2c(CNS(=O)(=O)c3cc(C)c(C)cc3C)c(-c3ccccc3)nc2s1
Input: Higher RP-LC retention time: A or B ? Indicate your choice by writing its label.
Output: B
(B: 941 s, A: 649 s)

* * *

Test: gradient 5% acetonitrile 3 min, to 50% in 2 min, to 85% in 15 min, held 3 min, 100 µL/min
Settings: column: Zorbax Extend-C18 2.1 x 50 mm; eluents: water / acetonitrile, 0.1% formic acid
Reported endpoint: RP-LC retention time (s)

Look over these answered cases.
Compound	Reported endpoint	Quantitative result
CN1CCCC1c1nc(C2CN(C(=O)c3ccn[nH]3)C2)no1 (stereo not given)	RP-LC retention time	506
O=C(NCCc1c[nH]c2ccccc12)C1COc2ccccc2O1 (stereo not given)	RP-LC retention time	866
COc1ccc(-c2noc(-c3nnn4c3COC(c3ccc(Cl)cc3)C4)n2)cc1 (stereo not given)	RP-LC retention time	1190

I = Cc1cc2oc(C(=O)NCCc3nc(-c4ccccc4)no3)c(C)c2cc1C
II = COCCc1noc(-c2ccccc2OC2CNC2)n1
Input: Higher RP-LC retention time: I or II ? Indicate your choice by writing its label.
Output: I
(I: 1210 s, II: 590 s)

* * *

Assay: gradient 5% acetonitrile 3 min, to 50% in 2 min, to 85% in 15 min, held 3 min, 100 µL/min
Conditions: column: Zorbax Extend-C18 2.1 x 50 mm; eluents: water / acetonitrile, 0.1% formic acid
Reported endpoint: RP-LC retention time (s)

Look over these answered cases.
Compound	Reported endpoint	Units symbol	Quantitative result
CN(C)c1ccc(C(=O)N2CCN(c3cc(-c4cccs4)[nH]n3)CC2)cc1	RP-LC retention time	s	714
O=C(CC(c1ccc(F)cc1)N1Cc2ccccc2C1=O)NCCCN1CCCC1 (centres undefined)	RP-LC retention time	s	619
COc1ccc(N2CCN(c3nc(C(=O)N4CCN(C(C)C)CC4)cs3)CC2)cc1	RP-LC retention time	s	627
CCc1ccc2c(c1)-c1ccccc1S(=O)(=O)N2CC(=O)NCCCn1ccnc1	RP-LC retention time	s	675
O=C1CC(c2noc(-c3ccccc3)n2)CN1c1ccc(Cl)cc1 (centres undefined)	RP-LC retention time	s	1040
O=C(Nc1cnc(N2CCCCCC2)nc1)c1cnccn1	RP-LC retention time	s	771

P = Cc1ccc2nc(-c3ccc(N4CCOCC4)cc3)c(Nc3ccccc3C)n2c1
Q = CCOc1ccc(-c2cc3c(=O)n(Cc4nc(-c5ccc(Cl)c(F)c5)no4)ncn3n2)cc1
Input: Higher RP-LC retention time: P or Q ? Indicate your choice by writing its label.
Output: Q
(Q: 1270 s, P: 755 s)

* * *

Test: gradient 5% acetonitrile 3 min, to 50% in 2 min, to 85% in 15 min, held 3 min, 100 µL/min
Settings: column: Zorbax Extend-C18 2.1 x 50 mm; eluents: water / acetonitrile, 0.1% formic acid
Reported endpoint: RP-LC retention time (s)

Look over these answered cases.
Compound	Reported endpoint	Quantitative result
COc1ccccc1NC(=O)N1CCOc2ccc(Cl)cc21	RP-LC retention time	1050
CC(C)N1C(=O)c2cccnc2Sc2cc(NC(=O)c3c(F)cccc3Cl)ccc21	RP-LC retention time	973

I = COc1ccc(-c2nc(C3CC(=O)N(c4ccc(Cl)cc4)C3)no2)cc1 (centres undefined)
II = O=C(c1ccc(F)c(F)c1)N1CCN(c2cc(-c3cccnc3)[nH]n2)CC1
Input: Given I and given II , which shows the smaller recorded RP-LC retention time? Indicate your choice by writing its label.
Output: II

* * *

Assay: gradient 5% acetonitrile 3 min, to 50% in 2 min, to 85% in 15 min, held 3 min, 100 µL/min
Details: column: Zorbax Extend-C18 2.1 x 50 mm; eluents: water / acetonitrile, 0.1% formic acid
Reported endpoint: RP-LC retention time (s)

Look over these answered cases.
Compound	RP-LC retention time / s
CCCN1C(=O)COc2ccc(-c3csc(NC(=O)c4ccc(C)cc4)n3)cc21	1080
CCN1CCC2(CC1)OC(=O)C(C)=C2C(=O)NCc1ccc(C)cc1	558
CCOC(=O)C1=C(CNc2ccc(C(F)(F)F)cc2)NC(=O)NC1c1ccc2c(c1)OCO2 (stereo not drawn)	966
O=C1COc2ccc(S(=O)(=O)N3CCC(C(=O)NCc4ccco4)CC3)cc2N1	697
Cc1ccc(S(=O)(=O)c2cnc(N3CCN(c4cc(C)ccc4C)CC3)nc2N)cc1	1310

I = O=C(Cn1cnc2nc(N3CCCC(C(=O)NC4CC4)C3)sc2c1=O)NC1CCCC1 (stereo not drawn)
II = O=C(Nc1ccccc1)C1CCN(S(=O)(=O)c2cc(-c3noc(C4CCC4)n3)cs2)CC1
Input: Higher RP-LC retention time: I or II ? Indicate your choice by writing its label.
Output: II
(II: 1080 s, I: 628 s)

a = Cc1cc(C(F)F)n2nc(C(=O)Nc3ccc(F)cc3C)nc2n1
b = Cc1cc(C(=O)N[C@@H]2CN(c3ncccn3)C[C@H]2CO)ccn1
c = Cc1sc(-c2cc(C(F)(F)F)on2)cc1S(=O)(=O)N1CCCc2ccccc21
Input: Ranking field: RP-LC retention time; order: falling. Give the labels in the order requested.
Output: c, a, b
(c: 1300 s, a: 811 s, b: 529 s)

a = Cc1c(C)n(-c2ccc(Cl)cc2)c2ncn(CC(=O)NCc3ccco3)c(=O)c12
b = Cc1noc([C@@H]2CN(Cc3cc(F)ccc3F)C[C@H]2CO)n1
Input: Higher RP-LC retention time: a or b ? Indicate your choice by writing its label.
Output: a

I = O=C1NC(c2cccc3ccccc23)Nc2ccccc21 (stereo not drawn)
II = Cc1cc(C)cc(-c2nc(-c3ccc4c(c3)oc(=O)n4C(C)C)no2)c1
Input: Given I and given II , which shows the smaller recorded RP-LC retention time? Indicate your choice by writing its label.
Output: I
